Values from PubChem BioAssay (NCI)

Assay: NCI Yeast Anticancer Drug Screen. Data for the mlh1 rad18 strain (AID 175)
Conditions: S. cerevisiae mlh1 rad18 strain growth inhibition; at 50.0 µM; stronger effect = higher value
This is part of a sample that, as a whole, favours compounds with a hit. Of some 79,000 tested, about 15% had one in any assay.
Everything with growth inhibition lower than 80% is -1; everything else, including exactly 80%, is 1.

compound | discrete_label
COc1nc2nc(SC(CC(=O)O)C(=O)c3ccc(Cl)cc3)[nH]c2c2ccccc12 (stereo not given) | -1
O=C1C=CC(=O)C2C3C=CC(CC3)C12 (stereo not given) | 1

Item CCCCCCCCCCC[N+](C)(C)CCCCCC[N+](C)(C)CCCCCCCCCCC with growth inhibition of 80% or above?
1

Given Cc1ccc(S(=O)(=O)N/N=C2/CC[C@H](C(C)(C)C)C[C@@H]2C)cc1 , state whether its growth inhibition is at least 80%.
-1

Is it the case that COc1cc2c(cc1OC)c1c(OC)c(OC)cc3c1c1c2sc(=S)n1CC3 has growth inhibition reaching or exceeding 80%?
1

###

Experiment: NCI Yeast Anticancer Drug Screen. Data for the sgs1 mgt1 strain (AID 161);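 also: 0% = growth of cultures given vehicle only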
Conditions: S. cerevisiae sgs1 mgt1 strain, at 50.0 µM (retest, dose inferred, filed as 5.0), stronger effect = higher value
This is part of a sample that, as a whole, favours compounds with a hit. Of some 79,000 tested, about 15% had one in any assay. The source made the active and inactive calls. No stated cut-off is given here; in the data, active means growth inhibition above about 70%; inactive means the rest.
endpoint_name: growth inhibition

Solved cases (2 shown):
compound | growth inhibition
CC(=O)c1cccc(NC2C(N)C(NC(=O)N(C)C)(C(C)O)C(C)(O)C2(O)COC(=O)c2c(C)cccc2O)c1 (centres undefined) | 97% (active)
O=C(O)c1cc(C(=O)O)c(C(=O)O)cc1C(=O)O.[NH-]C1CCCC1.[NH-]C1CCCC1.[NH-]C1CCCC1.[NH-]C1CCCC1.[Pt+2].[Pt+2] | 99% (active)

Give me growth inhibition for each of these compounds, listed below.
1. Cn1c(CN(Cc2nc3ccccc3n2C)Cc2nc3ccccc3n2C)nc2ccccc21
2. CC(C)=CCC/C(C)=C/CC/C(C)=C/CC/C=C(\C)CC/C=C(\C)CCC[N+](C)(C)[O-]
3. Cc1ccc(O)c(-c2cscn2)c1
4. Cc1cc[n+](C2CCC3(C)C(=CCC4C3CCC3(C)C(C(C)CCCC(C)C)CCC43)C2)cc1 (centres undefined)

1. 72% (active)
2. 94% (active)
3. 22% (inactive)
4. 98% (active)

Hi, could you look up growth inhibition for each item in my list?
1. CCOC(=O)c1ccc(NC(=O)CCl)cc1
2. CC(C)OC(=O)c1ccccc1C(=C1C=C(Br)C(=O)C(Br)=C1)c1cc(Br)c(O)c(Br)c1
3. COCCOC1=C(Cl)C(=O)c2c(O)ccc(O)c2C1=O

1. 98% (active)
2. 95% (active)
3. 99% (active)

###

Experiment: NCI Yeast Anticancer Drug Screen. Data for the sgs1 mgt1 strain (AID 161);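 also: 0% = growth of cultures given vehicle only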
Settings: S. cerevisiae sgs1 mgt1 strain, at 50.0 µM (retest, dose inferred, filed as 5.0), stronger effect = higher value
Compounds without any hit were thinned out: in the full panel of roughly 79,000, 15% have a hit.
endpoint_name: growth inhibition (%)
Answers are plain numbers, in %.

molecule | result_units | val
CN1CCCC1c1cccc(Br)c1 (configuration not stated) | % | 37

For every listed record, write down its growth inhibition.
1. CC/C(C)=C1\CCC(CN2CCOCC2)C1=O (configuration not stated)
2. Cc1cc(C)c(C(=O)C(Br)C(Br)c2ccccc2)c(C)c1 (configuration not stated)
3. Cc1ccc(S(=O)(=O)/C=C2\COc3ccccc3C2=O)cc1
4. OC(CC(CC(O)(C(F)(F)Cl)C(F)(F)Cl)=NNc1ccccc1)(C(F)(F)Cl)C(F)(F)Cl
5. Sc1ccccc1C1N(Cc2ccc(Cl)cc2)CCCN1Cc1ccc(Cl)cc1
6. Cc1ccc(NC(=O)CC2SC(=Nc3ccc(Cl)cc3)NC2=O)cc1C (configuration not stated)
7. CN(Nc1ccc(Cl)cc1)c1ccc(Cl)cc1

1. 70
2. 95
3. 100
4. 98
5. 84
6. 0
7. 97

Go through the list and state growth inhibition for each entry.
1. C=CC(=O)NC(C)C
2. Cc1[nH]nc(C(=O)N/N=C/c2cccs2)c1N=NN(C)C
3. O=C1c2ccccc2CC(Br)c2ccccc21 (configuration not stated)
4. CCC(=O)C(=O)CC1CC(c2ccco2)=Nc2ccccc2S1 (configuration not stated)

4
73
94
94
